All figures here come from patent US6750228B1.

Target: MMP-2 (Homo sapiens)
Construct: made in house; provided by Dr. Gregory Goldberg, Washington University
Test: biochemical
Conditions: recombinant human MMP-2, MCA peptide substrate 4 μM, pH 7.5, room temperature; read-out: MMP-2 IC50
# pIC50 annotations
A value of pIC50 is the negative decimal logarithm of a concentration given in moles per litre.

In the examples that follow, each entry is paired with its recorded pIC50.
{"columns": ["MOLECULE", "pIC50"],
 "data": [
  ["O=C(NO)C1(S(=O)(=O)c2ccc(Oc3ccc(C(F)(F)F)cc3)cc2)CCN(c2ncccc2C(F)(F)F)CC1", 7.81],
  ["O=C(NC1CCN(c2ccc(S(=O)(=O)C3(C(=O)NO)CCOCC3)cc2)CC1)c1ccc(OC(F)(F)F)cc1", 6.57],
  ["CC1CC(C)CN(C(=O)C2CCN(c3ccc(S(=O)(=O)C4(C(=O)NO)CCOCC4)cc3)CC2)C1 (centres unmarked) [Example 54]", 5.24],
  ["CCC(C)COCc1ccc(COC2CCN(c3ccc(S(=O)(=O)C4(C(=O)NO)CCOCC4)cc3)CC2)cc1 (centres unmarked)", 5.89]
]}

Would you kindly look at the next entry?
input: Give its pIC50 value. Item: `O=C(NO)C1(S(=O)(=O)c2ccc(N3CC[C@@H](COCc4ccc(OC(F)(F)F)cc4)C3)cc2)CCOCC1`
output: 5.05

* * *

Target: MMP-2 (Homo sapiens, UniProt P08253)
Construct: made in house; provided by Dr. Gregory Goldberg, Washington University
Assay: biochemical
Settings: recombinant human MMP-2, MCA peptide substrate 4 μM, pH 7.5, room temperature; read-out: MMP-2 IC50
Recorded IC50, one value per entry.

# example entries with known answers
{"columns": ["STRUCTURE_STRING", "ENDPOINT_RESULT"],
 "data": [
  ["CCc1ccc(C(=O)C2CCN(c3ccc(S(=O)(=O)C4(C(=O)NO)CCN(C5CC5)CC4)cc3)CC2)cc1", "400 nM"],
  ["CCOc1cc(N2CCC(C(=O)NO)(S(=O)(=O)c3ccc(Oc4ccc(OC(F)(F)F)cc4)cc3)CC2)ncn1", "< 0.1 nM"]
]}

input: Look up IC50: `O=C(NO)C1(S(=O)(=O)c2ccc(N3CCC(OCc4ccc(Cl)cc4)CC3)cc2)CCN(C2CC2)CC1`
output: 400 nM

input: Proceed to `O=C(NO)C1(S(=O)(=O)c2ccc(OC3CN(C(c4ccccc4)c4ccccc4)C3)cc2)CCOCC1`
output: 2900 nM

input: Ok, now `Cc1ccc(OC2CCN(c3ccc(S(=O)(=O)C4(C(=O)NO)CCOCC4)cc3)CC2)cc1`
output: 5.7 nM

input: Same question for `O=C(Nc1ccc(C(F)(F)F)cc1)N1CCC(C(=O)NO)(S(=O)(=O)c2ccc(Oc3ccc(OC(F)(F)F)cc3)cc2)CC1` please.
output: 2.5 nM

input: And the next one, `COC[C@@H]1CCN(c2ccc(S(=O)(=O)C3(C(=O)NO)CCOCC3)cc2)C1` ?
output: > 10000 nM

* * *

Entries annotated with measured pIC50
Molecular target: MMP-2 (Homo sapiens, UniProt P08253)
Construct: made in house; provided by Dr. Gregory Goldberg, Washington University
Sequence (P08253 110-660): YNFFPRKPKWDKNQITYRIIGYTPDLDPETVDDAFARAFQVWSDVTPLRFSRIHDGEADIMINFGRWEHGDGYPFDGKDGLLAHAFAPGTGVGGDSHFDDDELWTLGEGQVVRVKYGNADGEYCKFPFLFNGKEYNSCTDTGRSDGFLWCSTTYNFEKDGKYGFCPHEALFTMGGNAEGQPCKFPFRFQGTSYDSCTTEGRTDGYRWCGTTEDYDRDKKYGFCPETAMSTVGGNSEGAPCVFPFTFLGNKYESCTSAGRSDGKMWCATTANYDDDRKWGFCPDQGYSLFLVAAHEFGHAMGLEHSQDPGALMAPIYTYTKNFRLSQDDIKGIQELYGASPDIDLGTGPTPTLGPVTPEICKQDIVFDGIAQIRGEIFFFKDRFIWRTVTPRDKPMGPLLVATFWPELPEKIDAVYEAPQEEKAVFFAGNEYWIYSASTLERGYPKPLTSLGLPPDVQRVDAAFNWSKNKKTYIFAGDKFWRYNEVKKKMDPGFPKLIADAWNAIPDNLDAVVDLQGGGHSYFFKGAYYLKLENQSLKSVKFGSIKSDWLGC
Experiment: biochemical
Conditions: read-out: MMP-2 IC50
Friendly reminder that pIC50 comes from taking -log10 of the concentration in mol/L.

{"columns": ["COMPOUND", "pIC50"],
 "data": [
  ["O=C(c1ccc(F)cc1)C1CCN(c2ccc(S(=O)(=O)C3(C(=O)NO)CCSCC3)cc2)CC1", 7.23],
  ["O=C(C1CCN(c2ccc(S(=O)(=O)C3(C(=O)NO)CCOCC3)cc2)CC1)N1CCN(c2cccc(Cl)c2)CC1", 5.30],
  ["COc1ccccc1C1CCN(c2ccc(S(=O)(=O)C3(C(=O)NO)CCSCC3)cc2)CC1", 5.30],
  ["CC1CCCN(C(=O)C2CCN(c3ccc(S(=O)(=O)C4(C(=O)NO)CCOCC4)cc3)CC2)C1 (stereo not shown)", 5.22]
]}

Switching to the query record.
input: Give pIC50 (MMP-2 (Homo sapiens, UniProt P08253)) of the following compound: `O=C(C1CCN(c2ccc(S(=O)(=O)C3(C(=O)NO)CCOCC3)cc2)CC1)N1CCN(c2ccncc2)CC1`
output: 5.76
